Parameter recombinant barcode read abundance (log10): see the listing below.
Assay: recombinant barcode read abundance after kanamycin selection (control-corrected) (log10(CPM+1)); higher = more efficient recombination; sequences stand for … in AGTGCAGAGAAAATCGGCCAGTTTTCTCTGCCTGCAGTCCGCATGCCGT…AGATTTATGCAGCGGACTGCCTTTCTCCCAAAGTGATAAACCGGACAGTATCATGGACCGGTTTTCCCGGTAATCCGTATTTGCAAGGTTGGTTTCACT; site = the 11-nt target
Enter the number alone.

## Input Using the record for CGTTGTTCTTGGGTTCTAACCTGTTGCCT (site CGTTGATCTAG) , report its recombinant barcode read abundance (log10).
## Output 0.0873

## Input What about CCAAGGGCTTGGGTTCTAACCTGTTGCCG (site CCAAGGGCTCA) ?
## Output 0.0491

====

Assay: recombinant barcode read abundance after kanamycin selection (control-corrected) (log10(CPM+1)); higher = more efficient recombination; sequences stand for … in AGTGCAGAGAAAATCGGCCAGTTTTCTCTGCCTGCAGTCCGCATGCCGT…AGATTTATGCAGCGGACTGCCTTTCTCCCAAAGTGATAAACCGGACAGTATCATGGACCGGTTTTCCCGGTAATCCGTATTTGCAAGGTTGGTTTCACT; site = the 11-nt target
Please map values of recombinant barcode read abundance (log10) to classes as shown: lower: < 0.2; middle: ≥ 0.2 and < 0.5; upper: ≥ 0.5

CTGGTTCCTTGGGTTCTAACCTGTTGCCT (site CTGGTTCCTAG) | upper
GCGTGAGCTTGGGTTCTAACCTGTTGCCT (site GCTTGAGCTAG) | lower
CCGCGGACTTGGGTTCTAACCTGTTGCTA (site CCGCGGACTTA) | upper
CACACACCTTGGGTTCTAACCTGTTGCGT (site CACACACCTAC) | upper
TAGTCTCCTTGGGTTCTAACCTGTTGCGT (site TAGTCTCCTAC) | middle

## Input Category lookup for the sequence TAGGATTCTTGGGTTCTAACCTGTTGCGC (site TAGGATTCTGC)
## Output upper

## Input What about ACTACTCCTTGGGTTCTAACCTGTTGCAG (site ACTGGTCCTCT) ?
## Output lower

## Input What about TACAGAGCTTGGGTTCTAACCTGTTGCGG (site TAGAGAGCTCC) ?
## Output lower

## Input What about GGACAGTCTTGGGTTCTAACCTGTTGCGT (site CCGGTCCCTCT) ?
## Output middle

====

Parameter recombinant barcode read abundance (log10): see the listing below.
Experiment: recombinant barcode read abundance after kanamycin selection (control-corrected) (log10(CPM+1)); higher = more efficient recombination; sequences stand for … in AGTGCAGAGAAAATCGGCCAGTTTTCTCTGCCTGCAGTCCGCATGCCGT…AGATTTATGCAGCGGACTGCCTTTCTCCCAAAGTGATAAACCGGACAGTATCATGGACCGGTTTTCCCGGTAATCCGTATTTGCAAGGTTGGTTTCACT; site = the 11-nt target

Some entries whose results are on file:
CCGGGATCTTGGGTTCTAACCTGTTGCCT (site ACGGGATCTAG) | 0.323
AGAGAGACTTGGGTTCTAACCTGTTGCCT (site AGAGGGACTAG) | 0.27
GCATCTACTTGGGTTCTAACCTGTTGCTA (site GCATCTACTTA) | 0.0861
CGACGAACTTGGGTTCTAACCTGTTGCCT (site GTCAATCCTCC) | 0.0212
ATCGGAACTTGGGTTCTAACCTGTTGCCT (site ATCGGATCTAG) | 0.209
GTCGTTGCTTGGGTTCTAACCTGTTGCCT (site GTCGTTGCTAG) | 1.07

## Input Using the record for GTACCTTCTTGGGTTCTAACCTGTTGCCT (site GTACCTTCTAG) , report its recombinant barcode read abundance (log10).
## Output 1.08

## Input What about GTGAGGACTTGGGTTCTAACCTGTTGCCT (site GTGAGGACTAG) ?
## Output 1.49

## Input What about GACCGTCCTTGGGTTCTAACCTGTTGCAT (site GACCGTCCTAA) ?
## Output 0.167

## Input What about TACAGAGCTTGGGTTCTAACCTGTTGCGG (site TAAAGAGCTCC) ?
## Output 0.363

====

Assay: recombinant UMI read abundance after kanamycin selection (control-corrected) (log10(CPM+1)); higher = more efficient recombination; extreme values may be limits of the assay; sequences stand for … in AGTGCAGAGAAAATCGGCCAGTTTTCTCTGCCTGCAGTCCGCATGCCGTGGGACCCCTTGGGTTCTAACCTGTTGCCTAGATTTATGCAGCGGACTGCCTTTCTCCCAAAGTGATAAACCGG…AGGTTGGTTTCACT; site = the 11-nt donor
Parameter recombinant UMI read abundance (log10): see the listing below.
Enter the number alone.

CACAACACATGGACCGGTTTTCCCGGTAATCCGTATTTGAC (site CACAACACTGT) | 2.79

## Input Using the record for CCGAATCCATGGACCGGTTTTCCCGGTAATCCGTATTTGTT (site CTGAATCCTAA) , report its recombinant UMI read abundance (log10).
## Output 0.00536

## Input What about CCACCACCATGGACCGGTTTTCCCGGTAATCCGTATTTGTA (site CCACCACCTTA) ?
## Output 0.00663

## Input What about CCCTAGCCATGGACCGGTTTTCCCGGTAATCCGTATTTGCA (site CCCTAGCCTCG) ?
## Output 0

## Input What about CATTTCCCATGGACCGGTTTTCCCGGTAATCCGTATTTGCT (site CATTTCCCTAG) ?
## Output 0.788

## Input What about TTAGATGCATGGACCGGTTTTCCCGGTAATCCGTATTTGTG (site TTAGCTGCTCA) ?
## Output 0.0227

## Input What about TAGAATACATGGACCGGTTTTCCCGGTAATCCGTATTTGTG (site TAGAATACTCA) ?
## Output 2.01

## Input What about CTGGAGACATGGACCGGTTTTCCCGGTAATCCGTATTTGCA (site CTGGAGACTTG) ?
## Output 2.66

## Input What about TAATGGCCATGGACCGGTTTTCCCGGTAATCCGTATTTGCA (site GAATGGCCTTG) ?
## Output 0.00525

## Input What about ACACATCCATGGACCGGTTTTCCCGGTAATCCGTATTTGAC (site ACACATCCTCT) ?
## Output 0.265

====

Assay: recombinant UMI read abundance after kanamycin selection (control-corrected) (log10(CPM+1)); higher = more efficient recombination; extreme values may be limits of the assay; sequences stand for … in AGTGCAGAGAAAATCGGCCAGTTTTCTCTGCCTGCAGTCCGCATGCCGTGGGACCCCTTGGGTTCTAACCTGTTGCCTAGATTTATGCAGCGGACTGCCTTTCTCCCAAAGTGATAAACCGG…AGGTTGGTTTCACT; site = the 11-nt donor
Parameter recombinant UMI read abundance (log10): see the listing below.
Enter the number alone.

Some entries whose results are on file:
ACTCGAACATGGACCGGTTTTCCCGGTAATCCGTATTTGTC (site ACGCGAACTGA) | 1.26
TAATGCGCATGGACCGGTTTTCCCGGTAATCCGTATTTGGG (site TAATGCGCTCC) | 0
AGTGAGACATGGACCGGTTTTCCCGGTAATCCGTATTTGGT (site ATTGAGACTAC) | 0.546
TGCTTCGCATGGACCGGTTTTCCCGGTAATCCGTATTTGTC (site TGCTTCGCTGA) | 0.542
GTCTACACATGGACCGGTTTTCCCGGTAATCCGTATTTGCT (site TTCTACACTAG) | 1.44

Switching to the query record.
## Input Using the record for CTATGCACATGGACCGGTTTTCCCGGTAATCCGTATTTGTA (site ATATGCACTTA) , report its recombinant UMI read abundance (log10).
## Output 0.00544

====

Assay: recombinant UMI read abundance after kanamycin selection (control-corrected) (log10(CPM+1)); higher = more efficient recombination; extreme values may be limits of the assay; sequences stand for … in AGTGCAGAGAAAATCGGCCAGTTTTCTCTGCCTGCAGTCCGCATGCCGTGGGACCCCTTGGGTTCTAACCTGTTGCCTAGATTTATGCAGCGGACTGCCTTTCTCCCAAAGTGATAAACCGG…AGGTTGGTTTCACT; site = the 11-nt donor
Please map values of recombinant UMI read abundance (log10) to classes as shown: lower segment = under 0.004, middle segment = from 0.004 up to 0.5, upper segment = 0.5 and over

Examples from the recorded data:
TCATACCCATGGACCGGTTTTCCCGGTAATCCGTATTTGCA (site TCATACGCTTG) | lower segment
ATCTATACATGGACCGGTTTTCCCGGTAATCCGTATTTGTC (site ATCTATACTGC) | lower segment
GGATAGACATGGACCGGTTTTCCCGGTAATCCGTATTTGCC (site GGAAAGACTGG) | lower segment
CTGCTACCATGGACCGGTTTTCCCGGTAATCCGTATTTGCT (site CTCCTACCTAG) | lower segment

## Input Category lookup for the sequence TAAAGTCCATGGACCGGTTTTCCCGGTAATCCGTATTTGGA (site TAAAGTCCTTA)
## Output middle segment

## Input What about ATGTACGCATGGACCGGTTTTCCCGGTAATCCGTATTTGGC (site ATGTACGCTGC) ?
## Output upper segment

## Input What about CTGCTACCATGGACCGGTTTTCCCGGTAATCCGTATTTGCC (site CTGCTACCTAG) ?
## Output lower segment

## Input What about TATTTGGCATGGACCGGTTTTCCCGGTAATCCGTATTTGTG (site TAGTTGGCTCA) ?
## Output lower segment

## Input What about CCTTTTACATGGACCGGTTTTCCCGGTAATCCGTATTTGCT (site CCGTTTACTAG) ?
## Output lower segment

## Input What about CGGGAACCATGGACCGGTTTTCCCGGTAATCCGTATTTGTT (site CGGGAACCTAC) ?
## Output lower segment

## Input What about GTAATATCATGGACCGGTTTTCCCGGTAATCCGTATTTGCA (site GTAATATCTTG) ?
## Output upper segment

## Input What about CTAGTATCATGGACCGGTTTTCCCGGTAATCCGTATTTGAA (site CTAGTATCTCT) ?
## Output upper segment

## Input What about CGACGGTCATGGACCGGTTTTCCCGGTAATCCGTATTTGCC (site TATGCCGCTAT) ?
## Output lower segment

## Input What about CATTGGACATGGACCGGTTTTCCCGGTAATCCGTATTTGCC (site CATTGGACTGG) ?
## Output upper segment
